target: Muscarinic acetylcholine receptor M2 (Homo sapiens, UniProt P08172); assay: Displacement of 4-(2-((1E,3E)-5-((E)-1-(6-((3,5-Bis((2-(3-(1-(4-(1-(2-oxo-2-(11-oxo-10,11-dihydro-5H-dibenzo[b,e][1,4]diazepin-5-yl)ethyl)piperidin-4-yl)butyl)-1H-imidazol-4-yl)propanamido)ethyl)carbamoyl)benzyl)amino)-6-oxohexyl)-3,3-dimethyl-5-sulfoindolin-2-ylidene)penta-1,3-dien-1-yl)-3,3-dimethyl-3H-indol-1-ium-1-yl)butane-1-sulfonate Tris(hydrotrifluoroacetate) fluorescent tracer from human muscarinic M2 receptor expressed in […] cells measured after 60 mins by Hoechst H33342 dye based confocal plate reader assay; format: cell-based
parameter: Ki
Answer with the number, then the unit.

For O=C1CCCN1CC#CCN1CCCC1 on Muscarinic acetylcholine receptor M2 (Homo sapiens, UniProt P08172), measured Ki was 1.78 µM

Record for CCC(=O)NCc1cc(C(=O)NCCNC(=O)CCc2cn(CCCCC3CCN(CC(=O)N4c5ccccc5NC(=O)c5ccccc54)CC3)cn2)cc(C(=O)NCCNC(=O)CCc2cn(CCCCC3CCN(CC(=O)N4c5ccccc5NC(=O)c5ccccc54)CC3)cn2)c1 under target or system Muscarinic acetylcholine receptor M2 (Homo sapiens, UniProt P08172): Ki reported as 0.000525 µM

The recorded Ki with Muscarinic acetylcholine receptor M2 (Homo sapiens, UniProt P08172) for C[N+](C)(CCCCCC[N+](C)(C)CCCN1C(=O)c2ccccc2C1=O)CCCN1C(=O)c2ccccc2C1=O was 0.851 µM

###

Molecular target: Muscarinic acetylcholine receptor M2 (Homo sapiens)
Sequence (P08172 whole entry): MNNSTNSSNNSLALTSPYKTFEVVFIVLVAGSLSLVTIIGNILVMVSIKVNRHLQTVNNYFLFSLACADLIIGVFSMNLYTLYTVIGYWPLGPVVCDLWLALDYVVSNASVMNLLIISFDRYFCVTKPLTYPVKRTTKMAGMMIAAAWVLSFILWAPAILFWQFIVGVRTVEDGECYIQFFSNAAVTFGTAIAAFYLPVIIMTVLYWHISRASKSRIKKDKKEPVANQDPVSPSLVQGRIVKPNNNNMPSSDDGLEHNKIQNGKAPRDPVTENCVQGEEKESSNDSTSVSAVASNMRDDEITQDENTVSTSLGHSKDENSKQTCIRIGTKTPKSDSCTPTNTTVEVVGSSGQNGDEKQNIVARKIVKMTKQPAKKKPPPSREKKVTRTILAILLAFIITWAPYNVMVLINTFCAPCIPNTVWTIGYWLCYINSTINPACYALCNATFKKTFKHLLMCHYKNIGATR
Experiment: Displacement of 4-(2-((1E,3E)-5-((E)-3,3-Dimethyl-1-(6-oxo-6-((2-(4-(4-(1-(2-oxo-2-(11-oxo-10,11-dihydro-5H-dibenzo[b,e][1,4]diazepin-5-yl)ethyl)piperidin-4-yl)butyl)piperazin-1-yl)ethyl)amino)hexyl)-5-sulfoindolin-2-ylidene)penta-1,3-dien-1-yl)-3,3-dimethyl-3H-indol-1-ium-1-yl)butane-1-sulfonate Bis(hydrotrifluoroacetate) fluorescent tracer from human muscarinic M2 receptor expressed in […] cells measured after 60 mins by Hoechst H33342 dye based confocal plate reader assay
Type: cell-based
Assign Ki to each entry below.
Please respond with the number in nM and leave the unit unwritten.

Bench note, Muscarinic acetylcholine receptor M2 (Homo sapiens): entry O=C1CCCN1CC#CCN1CCCC1 , its Ki = 851

Summary: C[N+](C)(CCCCCC[N+](C)(C)CCCN1C(=O)c2ccccc2C1=O)CCCN1C(=O)c2ccccc2C1=O , Muscarinic acetylcholine receptor M2 (Homo sapiens), Ki = 1410

###

molecular target: Muscarinic acetylcholine receptor M2 (Homo sapiens); assay: Binding affinity to human muscarinic M2 receptor expressed in […] cells incubated in dark at 22 degree C for 2 hrs by FACSCalibur flow cytometric saturation binding study; type: cell-based; details: read-out: Kd
# label = y if Kd < 2 nM else n

Task item: Say whether its Kd is strictly beneath 2 nM. Entry: CC1(C)C(/C=C/C=C/C=C2/N(CCCCCC(=O)NCCN3CCN(CCCCC4CCN(CC(=O)N5c6ccccc6NC(=O)c6ccccc65)CC4)CC3)c3ccc(S(=O)(=O)O)cc3C2(C)C)=[N+](CCCCS(=O)(=O)[O-])c2ccccc21.O=C(O)C(F)(F)F.O=C(O)C(F)(F)F
Reply: y

Task item: Take the compound CC1(C)C(/C=C/C=C/C=C2/N(CCCCCC(=O)NCc3cc(C(=O)NCCN4CCC(N5CCC(n6c(=O)[nH]c7ccccc76)CC5)CC4)cc(C(=O)NCCN4CCN(CCCCC5CCN(CC(=O)N6c7ccccc7NC(=O)c7ccccc76)CC5)CC4)c3)c3ccc(S(=O)(=O)[O-])cc3C2(C)C)=[N+](CCCCS(=O)(=O)O)c2ccccc21.O=C(O)C(F)(F)F.O=C(O)C(F)(F)F.O=C(O)C(F)(F)F.O=C(O)C(F)(F)F and say whether its Kd is less than 2 nM.
Reply: y

Task item: # strict comparison: is reported Kd < 2 nM? input = CC1(C)C(/C=C/C=C/C=C2/N(CCCCCC(=O)NCCNC(=O)CCc3cn(CCCCC4CCN(CC(=O)N5c6ccccc6NC(=O)c6ccccc65)CC4)cn3)c3ccc(S(=O)(=O)O)cc3C2(C)C)=[N+](CCCCS(=O)(=O)[O-])c2ccccc21.O=C(O)C(F)(F)F
Reply: n

Task item: Dear reviewer, please state whether CC1(C)C(/C=C/C=C/C=C2/N(CCCCCC(=O)NCc3cc(C(=O)NCCNC(=O)CCc4cn(CCCCC5CCN(CC(=O)N6c7ccccc7NC(=O)c7ccccc76)CC5)cn4)cc(C(=O)NCCNC(=O)CCc4cn(CCCCC5CCN(CC(=O)N6c7ccccc7NC(=O)c7ccccc76)CC5)cn4)c3)c3ccc(S(=O)(=O)O)cc3C2(C)C)=[N+](CCCCS(=O)(=O)[O-])c2ccccc21.O=C(O)C(F)(F)F.O=C(O)C(F)(F)F.O=C(O)C(F)(F)F has Kd strictly beneath 2 nM.
Reply: n

###

experiment: Chemical stability of compound in PBS buffer assessed as retention time at pH 7.4 and 22 degree C measured up to 48 hrs by RP-HPLC analysis; type: physicochemical; settings: pH 7.4, 48 h
For each record, write down the corresponding Retention_time.
Express your answer as a number followed by its unit.

Form field Retention_time, entry CC1(C)C(/C=C/C=C/C=C2/N(CCCCCC(=O)NCCNC(=O)CCc3cn(CCCCC4CCN(CC(=O)N5c6ccccc6NC(=O)c6ccccc65)CC4)cn3)c3ccc(S(=O)(=O)O)cc3C2(C)C)=[N+](CCCCS(=O)(=O)[O-])c2ccccc21.O=C(O)C(F)(F)F : 10.3 min

Sure, the documented Retention_time for CC1(C)C(/C=C/C=C/C=C2/N(CCCCCC(=O)NCc3cc(C(=O)NCCN4CCC(N5CCC(n6c(=O)[nH]c7ccccc76)CC5)CC4)cc(C(=O)NCCN4CCN(CCCCC5CCN(CC(=O)N6c7ccccc7NC(=O)c7ccccc76)CC5)CC4)c3)c3ccc(S(=O)(=O)[O-])cc3C2(C)C)=[N+](CCCCS(=O)(=O)O)c2ccccc21.O=C(O)C(F)(F)F.O=C(O)C(F)(F)F.O=C(O)C(F)(F)F.O=C(O)C(F)(F)F is 18 min

The recorded Retention_time for CC1(C)C(/C=C/C=C/C=C2/N(CCCCCC(=O)NCCN3CCN(CCCCC4CCN(CC(=O)N5c6ccccc6NC(=O)c6ccccc65)CC4)CC3)c3ccc(S(=O)(=O)O)cc3C2(C)C)=[N+](CCCCS(=O)(=O)[O-])c2ccccc21.O=C(O)C(F)(F)F.O=C(O)C(F)(F)F is 18.2 min

Recorded Retention_time (compound CC1(C)C(/C=C/C=C/C=C2/N(CCCCCC(=O)NCc3cc(C(=O)NCCNC(=O)CCc4cn(CCCCC5CCN(CC(=O)N6c7ccccc7NC(=O)c7ccccc76)CC5)cn4)cc(C(=O)NCCNC(=O)CCc4cn(CCCCC5CCN(CC(=O)N6c7ccccc7NC(=O)c7ccccc76)CC5)cn4)c3)c3ccc(S(=O)(=O)O)cc3C2(C)C)=[N+](CCCCS(=O)(=O)[O-])c2ccccc21.O=C(O)C(F)(F)F.O=C(O)C(F)(F)F.O=C(O)C(F)(F)F ): 10.4 min

###

So I've got a bunch of molecules here, and I need their Ki values.
Target chain: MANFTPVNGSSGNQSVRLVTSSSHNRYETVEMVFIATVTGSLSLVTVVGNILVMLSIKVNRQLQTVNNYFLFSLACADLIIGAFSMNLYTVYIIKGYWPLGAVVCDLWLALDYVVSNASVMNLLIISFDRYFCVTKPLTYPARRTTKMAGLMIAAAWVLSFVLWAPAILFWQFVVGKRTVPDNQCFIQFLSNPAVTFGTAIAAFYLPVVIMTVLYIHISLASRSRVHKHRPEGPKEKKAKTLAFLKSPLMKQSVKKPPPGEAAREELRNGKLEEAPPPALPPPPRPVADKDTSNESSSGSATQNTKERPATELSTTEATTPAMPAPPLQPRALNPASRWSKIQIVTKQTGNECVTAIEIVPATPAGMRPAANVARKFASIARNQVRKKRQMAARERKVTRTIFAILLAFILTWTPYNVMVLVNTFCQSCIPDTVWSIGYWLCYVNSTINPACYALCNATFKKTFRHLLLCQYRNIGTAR
Supply the numeric figure in nM, leaving out any unit text.

Ki measured on NCCN1CCN(CCCCC2CCN(CC(=O)N3c4ccccc4NC(=O)c4ccccc43)CC2)CC1 = 0.447

Given item CC1(C)C(/C=C/C=C/C=C2/N(CCCCCC(=O)NCc3cc(C(=O)NCCN4CCC(N5CCC(n6c(=O)[nH]c7ccccc76)CC5)CC4)cc(C(=O)NCCN4CCN(CCCCC5CCN(CC(=O)N6c7ccccc7NC(=O)c7ccccc76)CC5)CC4)c3)c3ccc(S(=O)(=O)[O-])cc3C2(C)C)=[N+](CCCCS(=O)(=O)O)c2ccccc21.O=C(O)C(F)(F)F.O=C(O)C(F)(F)F.O=C(O)C(F)(F)F.O=C(O)C(F)(F)F , the value recorded as its Ki is 2.57

molecule CC1(C)C(/C=C/C=C/C=C2/N(CCCCCC(=O)NCc3cc(C(=O)NCCNC(=O)CCc4cn(CCCCC5CCN(CC(=O)N6c7ccccc7NC(=O)c7ccccc76)CC5)cn4)cc(C(=O)NCCNC(=O)CCc4cn(CCCCC5CCN(CC(=O)N6c7ccccc7NC(=O)c7ccccc76)CC5)cn4)c3)c3ccc(S(=O)(=O)O)cc3C2(C)C)=[N+](CCCCS(=O)(=O)[O-])c2ccccc21.O=C(O)C(F)(F)F.O=C(O)C(F)(F)F.O=C(O)C(F)(F)F , Ki observed: 2.88

// recorded Ki for Cc1cc(/C=C/C=C/c2ccc(N(C)C)cc2)cc(C)[n+]1CCN1CCN(CCCCC2CCN(CC(=O)N3c4ccccc4NC(=O)c4ccccc43)CC2)CC1 : 9.55

Lab note: C[N+]1=C(/C=C/C=C/C=C2/N(CCCCCC(=O)NCCCCC3CCN(CC(=O)N4c5ccccc5NC(=O)c5ccccc54)CC3)c3ccccc3C2(C)C)C(C)(C)c2ccccc21 gave Ki of 67.6
